All values here come from ChEMBL document CHEMBL2029220.

# Tested on: C6
# TEST NAME: Antiproliferative activity against rat C6 cells after 48 hrs by MTT assay
# Assay type: functional, cell-based
# SETTINGS: C6, 48 h
In this section we review reported EC50 values for a set of compounds.
Kindly answer with a numeric value in µM, unit omitted.

// known answers, use as guide
[
  {
    "MOLECULE": "N[C@@H]1[C@@H](OCc2ccccc2)[C@H](OCc2ccccc2)[C@@H](COCc2ccccc2)O[P@@]1(=O)c1ccccc1",
    "TARGET": "C6",
    "TEST READOUT": "EC50",
    "MEASURED": 16.3
  },
  {
    "MOLECULE": "CO[C@@H]1[C@@H](OCc2ccccc2)[C@H](OCc2ccccc2)[C@@H](COCc2ccccc2)O[P@@]1(=O)c1ccccc1",
    "TARGET": "C6",
    "TEST READOUT": "EC50",
    "MEASURED": 16.6
  },
  {
    "MOLECULE": "O=[P@@]1(c2ccccc2)O[C@H](COCc2ccccc2)[C@@H](OCc2ccccc2)[C@H](OCc2ccccc2)[C@H]1O",
    "TARGET": "C6",
    "TEST READOUT": "EC50",
    "MEASURED": 0.52
  },
  {
    "MOLECULE": "O=[P@@]1(c2ccccc2)O[C@H](COCc2ccccc2)[C@@H](OCc2ccccc2)[C@H](OCc2ccccc2)[C@H]1OCc1ccccc1",
    "TARGET": "C6",
    "TEST READOUT": "EC50",
    "MEASURED": 5.3
  },
  {
    "MOLECULE": "COc1ccc([P@@]2(=O)O[C@H](COCc3ccccc3)[C@@H](OCc3ccccc3)[C@H](OCc3ccccc3)[C@@H]2O)cc1",
    "TARGET": "C6",
    "TEST READOUT": "EC50",
    "MEASURED": 15
  },
  {
    "MOLECULE": "CC(=O)O[C@@H]1[C@@H](OCc2ccccc2)[C@H](OCc2ccccc2)[C@@H](COCc2ccccc2)O[P@@]1(=O)c1ccccc1",
    "TARGET": "C6",
    "TEST READOUT": "EC50",
    "MEASURED": 11.9
  },
  {
    "MOLECULE": "COc1ccc([P@]2(=O)O[C@H](COCc3ccccc3)[C@@H](OCc3ccccc3)[C@H](OCc3ccccc3)[C@@H]2O)cc1",
    "TARGET": "C6",
    "TEST READOUT": "EC50",
    "MEASURED": 2.9
  },
  {
    "MOLECULE": "O=[P@]1(c2ccccc2)O[C@H](COCc2ccccc2)[C@@H](OCc2ccccc2)[C@H](OCc2ccccc2)[C@H]1O",
    "TARGET": "C6",
    "TEST READOUT": "EC50",
    "MEASURED": 12
  }
]

Need EC50 of C=CCN[C@@H]1[C@@H](OCc2ccccc2)[C@H](OCc2ccccc2)[C@@H](COCc2ccccc2)O[P@@]1(=O)c1ccccc1 , thanks.
0.49

What about O=[P@@]1(c2ccccc2)O[C@H](COCc2ccccc2)[C@@H](OCc2ccccc2)[C@H](OCc2ccccc2)[C@H]1NCc1ccccc1 ?
2.68
